Source of measurements: ChEMBL document CHEMBL1914449

Tested on: Human immunodeficiency virus 1
Assay: Antiviral activity against R5 tropic Human immunodeficiency virus 1 subtype B-ADA5 infected in human TZM-bl cells assessed as inhibition of virus-induced cytopathic effect after 2 days by luciferase assay
Type: functional, organism-based
Details: Human immunodeficiency virus 1, subtype B-ADA5, TZM-bl, 48 h
Lab note - cut at 1 µg/mL for EC50: YES if strictly below, NO if not.

Completed entries (count: 3):
MOLECULE	CLASS_ASSIGNMENT
Cc1nc(N2C(=O)CSC2c2c(Br)cncc2Br)ccc1Br (stereo unspecified)	NO
Cc1cc(N2C(=O)CSC2c2c(F)cccc2Cl)no1 (stereo unspecified)	NO
Cc1cc(C)nc(N2C(=O)CSC2c2c(Br)cncc2Br)c1 (stereo unspecified)	NO

## Task Does CC(C)(C)c1cc(N2C(=O)CSC2c2c(F)cccc2Cl)no1 (stereo unspecified) have EC50 strictly under 1 µg/mL?
## Result NO

## Task Quick one: Cc1cc(C)nc(N2C(=O)CSC2c2c(Cl)cncc2Cl)c1 (stereo unspecified)
## Result YES

## Task Quick one: Cc1cc(N2C(=O)CSC2c2c(F)cccc2F)no1 (stereo unspecified)
## Result NO

###

Consider the following compounds and their measured CC50 at 48 h readings.
Experiment: Cytotoxicity in human TZM-bl cells assessed as cell viability after 48 hrs by MTT assay
Format: cell-based
State just the number; it will be interpreted in µg/mL.

Please review the following examples before continuing.
COMPOUND	UNIT_OF_MEASURE	CC50 at 48 h
Cc1cc(N2C(=O)CSC2c2c(Cl)cccc2Cl)nc(C)c1Br (stereo not given)	µg/mL	2.5
CC(C)(C)c1cc(N2C(=O)CSC2c2c(F)cccc2Cl)no1 (stereo not given)	µg/mL	40.7
CC(C)(C)c1cc(N2C(=O)CSC2c2c(Cl)cccc2Cl)no1 (stereo not given)	µg/mL	48.5
Cc1nc(N2C(=O)CSC2c2c(Cl)cncc2Cl)ccc1Br (stereo not given)	µg/mL	66.7

API: the following record is the query input.
## Task Which CC50 at 48 h value is on record for `Cc1ccnc2c1NC(=O)c1cccnc1N2C1CC1` ?
## Result 76.1

###

Test: Selectivity index, ratio of CC50 for human TZM-bl cells to EC50 for X4 tropic Human immunodeficiency virus 1 subtype B-3B
Assay type: cell-based
Details: read-out: Ratio CC50/EC50
selectivity ratio vs 50: at or above is yes (1), below is no (0).

## Task Threshold query (selectivity ratio >= 50) on Cc1cccc(N2C(=O)CSC2c2c(Br)cncc2Br)n1 (stereo unspecified)
## Result no (0)

###

Assay: Selectivity index, ratio of CC50 for human TZM-bl cells to EC50 for R5 tropic Human immunodeficiency virus 1 subtype B-ADA5
Type: toxicity, cell-based
Conditions: read-out: Ratio CC50/EC50
Consider the following compounds and their measured selectivity ratio readings.
// return a plain number; no unit text

COMPOUND	selectivity ratio
Cc1cc(N2C(=O)CSC2c2c(F)cccc2Cl)no1 (stereo unspecified)	36.3
Cc1cc(C)nc(N2C(=O)CSC2c2c(Cl)cncc2Cl)c1 (stereo unspecified)	120
Cc1cccc(N2C(=O)CSC2c2c(Cl)cncc2Cl)n1 (stereo unspecified)	27.4
Cc1nc(N2C(=O)CSC2c2c(Cl)cncc2Cl)ccc1Br (stereo unspecified)	30.7
Cc1cc(C)nc(N2C(=O)CSC2c2c(Br)cncc2Br)c1 (stereo unspecified)	41.1

API: the following record is the query input.
## Task Which selectivity ratio value is on record for Cc1cc(N2C(=O)CSC2c2c(F)cccc2F)no1 (stereo unspecified) ?
## Result 46.8
